# Experimental system: Human GLP-1 receptor (Homo sapiens)
# Construct: The full-length cDNA was cloned in pcDNA3.1(+); expressed in transfected cells
# Sequence (P43220 24-463): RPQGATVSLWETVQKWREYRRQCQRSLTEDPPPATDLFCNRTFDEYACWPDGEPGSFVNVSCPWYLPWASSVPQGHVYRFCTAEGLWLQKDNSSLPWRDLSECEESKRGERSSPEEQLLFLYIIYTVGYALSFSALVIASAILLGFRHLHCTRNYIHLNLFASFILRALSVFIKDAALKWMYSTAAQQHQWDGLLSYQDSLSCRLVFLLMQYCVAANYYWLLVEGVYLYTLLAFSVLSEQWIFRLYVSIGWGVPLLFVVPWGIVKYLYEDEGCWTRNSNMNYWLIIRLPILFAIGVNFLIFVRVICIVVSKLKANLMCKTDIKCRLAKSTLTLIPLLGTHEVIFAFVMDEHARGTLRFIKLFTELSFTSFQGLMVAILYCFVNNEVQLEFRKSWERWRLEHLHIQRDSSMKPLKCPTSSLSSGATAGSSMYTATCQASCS
# Test description: In vitro Human GLP-1 R agonist activity (cyclic AMP determination) in CHO/human GLP1R cells
# Type: cell-based
# Test conditions: 100 nM test compound
Measured property: Human GLP-1 R activity (cAMP release), % activity with respect to control (%)

Compound	Value measured
CCc1cc(OC)ccc1-c1ccc(CC(C(=O)N(C)C(CCCc2ccccc2F)C(N)=O)N(C)C(=O)[C@H](CC(=O)O)N(C)C(=O)[C@H](CO)NC(=O)[C@@H](NC(=O)C(C)(Cc2ccccc2F)NC(=O)[C@@H](NC(=O)CNC(=O)C(CCC#N)NC(=O)C(C)(C)NC(=O)[C@@H](N)Cc2c[nH]cn2)[C@H](C)O)[C@H](C)O)cc1 (single isomer, unassigned)	99
CCc1cc(OC)ccc1-c1ccc(CC(NC(=O)[C@H](CC(=O)O)NC(=O)[C@H](CO)NC(=O)[C@@H](NC(=O)[C@H](Cc2ccccc2)NC(=O)[C@@H](NC(=O)CNC(=O)C(CCC#N)NC(=O)C(C)(C)NC(=O)[C@@H](N)Cc2c[nH]cn2)[C@@H](C)O)[C@@H](C)O)C(=O)NC(CCCc2ccc(C(F)(F)F)cc2F)C(N)=O)cc1 (single isomer, unassigned)	99
CCc1cc(OC)ccc1-c1ccc(CC(CNC(CCCc2ccccc2F)C(N)=O)NC[C@H](CC(=O)O)NC(=O)[C@H](CO)NC(=O)[C@@H](NC(=O)C(C)(Cc2ccccc2F)NC(=O)[C@@H](NC(=O)CNC(=O)[C@H](CCC(N)=O)NC(=O)C(C)(C)NC(=O)[C@H](Cc2c[nH]cn2)NC(=O)OC)[C@H](C)O)[C@H](C)O)cc1 (single isomer, unassigned)	92
CCc1cc(OC)ccc1-c1ccc(CC(NC(=O)[C@H](CC(=O)O)NC(=O)[C@H](CO)NC(=O)[C@@H](NC(=O)[C@H](Cc2ccccc2)NC(=O)[C@@H](NC(=O)CNC(=O)[C@H](CCC(N)=O)NC(=O)C(C)(C)NC(=O)[C@@H](N)Cc2c[nH]cn2)[C@@H](C)O)[C@@H](C)O)C(=O)NC(CCCc2cccc(Cl)c2)C(N)=O)cc1 (single isomer, unassigned)	99
